The entries below come with measured Ki values attached.
TARGET_UNDER_TEST: S1P1 (Homo sapiens, UniProt P21453)
ASSAY_EXPLANATION: Receptor binding assay, [33P]sphingosine 1-phosphate competition, membranes of CHO cells expressing S1P1
CONDITION_SUMMARY: 384 well plate; read-out: S1P1 Binding Ki [M] (384 well plate)
Experimental: Membranes were prepared from CHO cells expressing S1P1 or S1P3 for use in ligand binding studies. […] [33P]sphingosine 1-phosphate (3000 Ci/mmol; American Radiolabeled Chemicals, Inc.) was added to test compounds in 20% DMSO by competition. […] Binding was performed for 60 min at RT on a shaker and bound radioactivity was measured on a PerkinElmer 1450 MicroBeta counter. […] Binding data were analyzed using the GraphPad Prism program or Genedata software. […]
Sequence (P21453 whole entry, species assumed): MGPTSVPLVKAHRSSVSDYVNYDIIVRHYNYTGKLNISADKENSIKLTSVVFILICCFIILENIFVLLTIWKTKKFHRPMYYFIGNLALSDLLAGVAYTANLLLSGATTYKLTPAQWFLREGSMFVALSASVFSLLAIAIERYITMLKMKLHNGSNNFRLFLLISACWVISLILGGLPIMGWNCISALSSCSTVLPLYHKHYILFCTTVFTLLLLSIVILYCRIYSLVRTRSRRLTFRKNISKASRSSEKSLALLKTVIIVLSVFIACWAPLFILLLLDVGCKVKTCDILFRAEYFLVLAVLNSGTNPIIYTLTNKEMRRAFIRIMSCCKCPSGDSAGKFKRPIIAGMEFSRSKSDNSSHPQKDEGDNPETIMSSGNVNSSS
Counter-ions that a name gives are not always drawn.
Please reply with the bare figure in M and do not write the unit itself.

Worked set:
compound="COCc1cc(-c2nc(-c3ccc([C@H](C)NCC(=O)O)cc3)no2)ccc1-c1ccccc1C [Example 5, hydrochloride salt]" property_label=Ki measured_value=1.27e-09
compound="Cc1ccccc1-c1ccc(-c2nc(-c3ccc(C(CO)NCC(=O)O)cc3)no2)cc1C(F)(F)F (stereo not shown) [Example 52]" property_label=Ki measured_value=3.76e-09
compound="Cc1ccccc1-c1ccc(-c2nc(-c3ccc(CN(C)[C@H](C)C(=O)O)cc3)no2)cc1C(F)(F)F [Example 71]" property_label=Ki measured_value=2e-09
compound="Cc1cc(-c2nc(-c3cccc(C(C)N(C)CC(=O)O)c3)no2)ccc1-c1ccccc1C(F)(F)F (stereo not shown) [Example 30, hydrochloride salt]" property_label=Ki measured_value=1.43e-08
compound="CC[C@@H](C(=O)O)N(C)Cc1ccc(-c2noc(-c3ccc(-c4ccccc4C)c(C(F)(F)F)c3)n2)cc1 [Example 69]" property_label=Ki measured_value=5.2e-09
compound="Cc1cc(-c2nc(-c3ccc([C@@H](C)N[C@H](C)C(=O)O)cc3)no2)ccc1-c1ccccc1C(F)F [Example 2, hydrochloride salt]" property_label=Ki measured_value=1.42e-09

Tell me the measured Ki of Cc1ccccc1-c1ccc(-c2nc(-c3ccc(CCN[C@H](C)C(=O)O)cc3)no2)cc1C(F)(F)F [Example 93] , please. 1.22e-08

###

The reader will find reported Ki values listed item by item below.
TARGET_UNDER_TEST: S1P3 (Homo sapiens, UniProt Q99500)
Sequence (Q99500 whole entry, species assumed): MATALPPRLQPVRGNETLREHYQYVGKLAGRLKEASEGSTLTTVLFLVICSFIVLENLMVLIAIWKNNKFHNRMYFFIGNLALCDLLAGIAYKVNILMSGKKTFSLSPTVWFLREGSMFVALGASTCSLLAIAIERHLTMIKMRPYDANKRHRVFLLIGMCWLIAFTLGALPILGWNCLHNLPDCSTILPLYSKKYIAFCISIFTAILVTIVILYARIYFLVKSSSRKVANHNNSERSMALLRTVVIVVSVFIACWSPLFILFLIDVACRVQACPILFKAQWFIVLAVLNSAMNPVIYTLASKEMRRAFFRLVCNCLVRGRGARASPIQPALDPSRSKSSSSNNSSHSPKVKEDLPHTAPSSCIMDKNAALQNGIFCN
ASSAY_EXPLANATION: Receptor binding assay, [33P]sphingosine 1-phosphate competition, membranes of CHO cells expressing S1P3
CONDITION_SUMMARY: 384 well plate; read-out: S1P3 Binding Ki [M] (384 well plate)
Structures can show the parent of a compound that is named as a salt.
Numeric only. Scale: M

compound="Cc1ccccc1-c1ccc(-c2nc(-c3ccc(CN[C@H](C(=O)O)C(C)C)c(F)c3)no2)cc1C(F)(F)F [Example 47, hydrochloride salt]" unit_name=M measured_value=1.95e-05
compound="Cc1cc(-c2nc(-c3ccc(C(C)NCC(=O)O)cc3)no2)ccc1-c1ccccc1C(F)(F)F (stereo not drawn) [Example 23, hydrochloride salt]" unit_name=M measured_value=7.05e-06
compound="COCc1cc(-c2nc(-c3ccc([C@H](C)N[C@H](C)C(=O)O)cc3)no2)ccc1-c1ccccc1C [Example 3, hydrochloride salt]" unit_name=M measured_value=2.59e-06
compound="Cc1ccccc1-c1ccc(-c2nc(-c3ccc(C(CO)NCC(=O)O)cc3)no2)cc1C(F)(F)F (stereo not drawn)" unit_name=M measured_value=1.08e-06
compound="Cc1cc(-c2nc(-c3ccc([C@@H](C)NCC(=O)O)cc3)no2)ccc1-c1ccccc1C(F)(F)F [Example 8, hydrochloride salt]" unit_name=M measured_value=6.38e-06

Here is another compound to look at.
Can you look up the measured Ki of COCc1cc(-c2nc(-c3ccc(C(C)N(C)[C@@H](C)C(=O)O)cc3)no2)ccc1-c1ccccc1C (stereo partly drawn) for me? 3.4e-06

###

TARGET_UNDER_TEST: S1P1 (Homo sapiens)
ASSAY_EXPLANATION: S1P1 internalization assay in S1P1-U2OS cells (cell imaging)
CONDITION_SUMMARY: U2OS cells expressing S1P1-EGFP, 384-well format
Sequence (P21453 whole entry): as the sequence (P21453 whole entry, species assumed) above
pEC50: −log10 of the molar value. Structures can show the parent of a compound that is named as a salt.
Decision: pEC50 >= 8 yields yes (1), all other cases yield no (0).

Observe how each entry below is paired with its result.
compound=Cc1ccccc1-c1ccc(-c2nc(-c3ccc(CN[C@@H](CCO)C(=O)O)cc3)no2)cc1C(F)(F)F group_label="no (0)"
compound=Cc1ccccc1-c1ccc(-c2nc(-c3cccc(CN(C)C(C)(C)C(=O)O)c3)no2)cc1C(F)(F)F group_label="no (0)"
compound=Cc1ccccc1-c1ccc(-c2nc(-c3cccc(CCN[C@@H](C)C(=O)O)c3)no2)cc1C(F)(F)F group_label="yes (1)"
compound=Cc1ccccc1-c1ccc(-c2nc(-c3cccc(CNC4(C(=O)O)CCC4)c3)no2)cc1C(F)(F)F group_label="yes (1)"

Please examine the following record next.
# check: pEC50 of COCc1cc(-c2nc(-c3ccc([C@@H](C)NCC(=O)O)cc3)no2)ccc1-c1ccccc1C [Example 9, hydrochloride salt] is greater than or equal to 8 yes (1)

###

TARGET_UNDER_TEST: S1P3 (Homo sapiens)
ASSAY_EXPLANATION: Receptor binding assay, [33P]sphingosine 1-phosphate competition, membranes of CHO cells expressing S1P3
CONDITION_SUMMARY: 96 well plate; read-out: S1P3 Binding Ki [M] (96 well plate)
Counter-ions that a name gives are not always drawn.
# key: entry, value: Ki
The reply should contain only the number, in M.

Example compounds with recorded Ki:
compound=CNCc1cccc(-c2noc(-c3ccc(-c4ccccc4C)c(C(F)(F)F)c3)n2)c1 unit_name=M measured_value=2.4e-08
compound=Cc1ccccc1-c1ccc(-c2nc(-c3ccc(CN(C)[C@H](C)C(=O)O)cc3)no2)cc1C(F)(F)F unit_name=M measured_value=7.01e-07
compound="Cc1ccccc1-c1ccc(-c2nc(-c3ccc([C@@H](C)NCC(=O)O)cc3)no2)cc1C(F)(F)F [Example 22, hydrochloride salt]" unit_name=M measured_value=5.98e-07
compound="Cc1ccccc1-c1ccc(-c2nc(-c3cccc(CNC(C(=O)O)C(C)C)c3)no2)cc1C(F)(F)F (stereo not shown)" unit_name=M measured_value=3.32e-08
compound=Cc1ccccc1-c1ccc(-c2nc(-c3ccc([C@@H](C)N)cc3)no2)cc1C(F)(F)F unit_name=M measured_value=1.45e-06

Then this compound:
So what does the record say about Ki for COCc1cc(-c2nc(-c3ccc([C@@H](C)N[C@H](C)C(=O)O)cc3)no2)ccc1-c1ccccc1C [Example 4, hydrochloride salt] ? 2.2e-06

###

Reported Ki by item:
TARGET_UNDER_TEST: S1P1 (Homo sapiens, UniProt P21453)
ASSAY_EXPLANATION: Receptor binding assay, [33P]sphingosine 1-phosphate competition, membranes of CHO cells expressing S1P1
CONDITION_SUMMARY: 384 well plate; read-out: S1P1 Binding Ki [M] (384 well plate)
Counter-ions that a name gives are not always drawn.
Form entry: value (M) — number only.

Illustrative cases are given below, each with its answer.
compound="Cc1ccccc1-c1ccc(-c2nc(-c3ccc(CN(C)C(C)(CO)C(=O)O)cc3)no2)cc1C(F)(F)F (stereo not shown) [Example 75]" measured_value=5.3e-09
compound="Cc1cc(-c2nc(-c3ccc(C(C)NCC(=O)O)cc3)no2)ccc1-c1ccccc1C(F)(F)F (stereo not shown) [Example 23, hydrochloride salt]" measured_value=1.71e-09
compound="Cc1ccccc1-c1ccc(-c2nc(-c3ccc(CN[C@H](C(=O)O)[C@@H](C)O)cc3)no2)cc1C(F)(F)F [Example 61]" measured_value=4.27e-09

Enter reported Ki observed with S1P1 (Homo sapiens, UniProt P21453) for Cc1ccccc1-c1ccc(-c2nc(-c3ccc(CN[C@H](C(=O)O)C(C)C)c(F)c3)no2)cc1C(F)(F)F [Example 47, hydrochloride salt] 4.26e-09

###

TARGET_UNDER_TEST: S1P1 (Homo sapiens, UniProt P21453)
ASSAY_EXPLANATION: Receptor binding assay, [33P]sphingosine 1-phosphate competition, membranes of CHO cells expressing S1P1
CONDITION_SUMMARY: 384 well plate; read-out: S1P1 Binding Ki [M] (384 well plate)
Counter-ions that a name gives are not always drawn.
Catalogue of Ki values
The reply should be a number in M, with the unit left off.

Some solved cases for reference:
compound="CCN(Cc1cccc(-c2noc(-c3ccc(-c4ccccc4C)c(C(F)(F)F)c3)n2)c1)[C@H](CO)C(=O)O [Example 87]" property_label=Ki unit_name=M measured_value=2.29e-09
compound="Cc1cc(-c2nc(-c3ccc(C(C)N(C)CC(=O)O)cc3)no2)ccc1-c1ccccc1C(F)(F)F (centres unmarked) [Example 14, hydrochloride salt]" property_label=Ki unit_name=M measured_value=4.78e-09
compound="Cc1ccccc1-c1ccc(-c2nc(-c3ccc(C(C)N(C)[C@@H](C)C(=O)O)cc3)no2)cc1C(F)(F)F (some centres unmarked) [Example 39]" property_label=Ki unit_name=M measured_value=4.34e-09
compound="CC[C@H](NCc1ccc(-c2noc(-c3ccc(-c4ccccc4C)c(C(F)(F)F)c3)n2)cc1)C(=O)O [Example 54]" property_label=Ki unit_name=M measured_value=7.95e-09
compound="CC[C@@H](C(=O)O)N(C)Cc1cccc(-c2noc(-c3ccc(-c4ccccc4C)c(C(F)(F)F)c3)n2)c1 [Example 86]" property_label=Ki unit_name=M measured_value=5.88e-09

So what's the measured Ki for this one? Cc1ccccc1-c1ccc(-c2nc(-c3cccc(CNC(C(=O)O)C(C)C)c3)no2)cc1C(F)(F)F (centres unmarked) [Example 79] 1.07e-09

Where do the numbers come from? From patent US9029405B2.
